# key: entry, value: pIC50
biological target: human CB2 receptor (Homo sapiens (Human), UniProt P34972); experiment: CB2 receptor binding assay ([3H]CP-55,940 displacement, HEK-293 membranes); settings: membranes of HEK-293 cells with human recombinant CB2R, [3H]CP-55,940; class symbols; read-out: CB2 IC50
Sequence (P34972 whole entry): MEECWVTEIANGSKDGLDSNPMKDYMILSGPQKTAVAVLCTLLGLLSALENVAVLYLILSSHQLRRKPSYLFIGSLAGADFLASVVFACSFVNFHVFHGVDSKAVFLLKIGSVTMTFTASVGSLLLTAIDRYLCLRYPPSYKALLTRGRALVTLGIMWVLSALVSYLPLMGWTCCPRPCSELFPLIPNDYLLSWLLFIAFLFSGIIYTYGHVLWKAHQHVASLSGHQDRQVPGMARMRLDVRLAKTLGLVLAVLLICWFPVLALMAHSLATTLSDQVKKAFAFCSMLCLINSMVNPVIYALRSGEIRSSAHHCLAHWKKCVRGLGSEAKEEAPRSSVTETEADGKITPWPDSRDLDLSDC
pIC50: −log10 of the molar value.
reported_property: pIC50

• C[C@@H](NC(=O)c1cc2cc(Br)cnc2n(Cc2ccc(C#N)cc2)c1=O)c1ccc(F)cc1 = > 7.00
• N#Cc1ccc(-c2cnc3c(c2)cc(C(=O)NC2CC4(CCC4)C2)c(=O)n3Cc2ccc(F)cc2)nc1 = > 7.00
• CC1CCC(NC(=O)c2cc3cc(Br)cnc3n(CCN3CCOCC3)c2=O)CC1 (stereo not shown) = > 7.00
• O=C(NC12CC(C1)C2)c1c(O)c2cc(-c3ccc(F)cc3)cnc2n(Cc2ccncc2)c1=O = < 6.00
